For each record, write down the corresponding IC50.
measured_on: Recombinant human Menin protein (2-610) / MLL polypeptide binding (Homo sapiens (Human), UniProt O00255)
Sequence (O00255 2-610): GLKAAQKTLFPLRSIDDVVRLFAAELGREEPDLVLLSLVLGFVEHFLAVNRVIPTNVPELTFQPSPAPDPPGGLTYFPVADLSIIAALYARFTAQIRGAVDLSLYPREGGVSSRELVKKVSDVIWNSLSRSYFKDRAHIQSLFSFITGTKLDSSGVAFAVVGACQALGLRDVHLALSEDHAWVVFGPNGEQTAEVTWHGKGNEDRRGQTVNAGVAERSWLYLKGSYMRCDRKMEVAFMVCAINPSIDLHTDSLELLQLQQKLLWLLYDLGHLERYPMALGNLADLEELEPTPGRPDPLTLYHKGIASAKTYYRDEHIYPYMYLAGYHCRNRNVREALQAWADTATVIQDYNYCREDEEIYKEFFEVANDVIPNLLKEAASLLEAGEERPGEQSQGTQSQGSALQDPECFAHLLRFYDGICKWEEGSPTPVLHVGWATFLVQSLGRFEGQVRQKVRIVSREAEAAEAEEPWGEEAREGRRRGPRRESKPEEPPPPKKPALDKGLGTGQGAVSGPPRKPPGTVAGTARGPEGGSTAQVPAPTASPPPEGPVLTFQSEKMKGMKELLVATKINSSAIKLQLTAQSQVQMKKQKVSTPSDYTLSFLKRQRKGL
test_protocol: Menin and MLL protein binding at a molecular level (fluorescence polarization method)
test_conditions: inhibition of Menin / MLL polypeptide binding
Experimental: Example 3: Determination of the Activity of the Compounds of the Present Invention on Menin and MLL Protein Binding at a Molecular Level (Fluorescence Polarization Method) 1. Reagents, Materials and Instruments: […] The vertical polarization S value and the horizontal polarization P value (excitation wavelength was 480 nm, and emission wavelength was 535 nm) were measured with Envision. […]

Known results for molecules:
CCN(C(=O)c1cc(F)ccc1Oc1nncnc1N1CC2(CCN(CC3CCN(c4ccnc(OC)c4)CC3)CC2)C1)C(C)C : 2.3 nM
CCN(C(=O)c1cc(F)ccc1Oc1nncnc1N1CC2(CCN(CC3CCN(c4cc(C)c(OC)nn4)CC3)CC2)C1)C(C)C : 0.9 nM
CCN(C(=O)c1cc(F)ccc1Oc1nncnc1N1CC2(CCN(Cc3ccc4nc(C)ncc4c3)CC2)C1)C(C)C : > 1000 nM
CCN(C(=O)c1cc(F)ccc1Oc1nncnc1N1CC2(CCN(Cc3ccc(NCC#N)cc3C)CC2)C1)C(C)C : 89.4 nM

Batch request: IC50 per item, same order as input.
1. CCN(C(=O)c1cc(F)ccc1Oc1nncnc1N1CC2(CCN(CC3CCN(c4cc(OC)c(OC)cn4)CC3)CC2)C1)C(C)C
2. CCNC(=O)c1cc(F)ccc1Oc1nncnc1N1CC2(CCN(CC3CCN(c4cc(OC)c(OC)nn4)CC3)CC2)C1 [Compound 179]
3. [2H]C(c1ccc2[nH]c(C#N)cc2c1C)N1CCC2(CC1)CN(c1ncnnc1Oc1ccc(F)cc1C(=O)N(CC)C(C)C)C2 (stereo not shown)

RESULT:
1: 0.7 nM; 2: 560 nM; 3: 1.5 nM
